- protocol details: Pharmacokinetics, plasma concentration by bioassay after subcutaneous injection
- Assay type: in vivo
- cond: mouse, sc, mice (ddY, male), 20 mg/kg subcutaneous, read-out: AUCall (area under the concentration-time curve in plasma)
measurement type: AUC (ng·h/mL)

C[C@@H](O)[C@H]1C(=O)N2C(C(=O)[O-])=C(SC3CN(c4nc(C(=O)N5CCOCC5)cs4)C3)[C@H](C)[C@H]12.[Na+]
40400

[1] C[C@@H](O)[C@H]1C(=O)N2C(C(=O)[O-])=C(SC3CN(c4nc(C(N)=O)cs4)C3)[C@H](C)[C@H]12.[Na+]
[2] C[C@@H](O)[C@H]1C(=O)N2C(C(=O)O)=C(SC3CN(c4nc(CN)cs4)C3)[C@H](C)[C@H]12
Query block: When 1 and 2 are compared, which has the higher number for AUC? Response format: the label of the selected entry.
Result block: 1

###

- protocol details: Pharmacokinetics, plasma concentration by bioassay after subcutaneous injection
- Assay type: in vivo
- cond: mouse, in vivo, sc, mice (ddY, male), 20 mg/kg subcutaneous, read-out: Cmax (maximal plasma concentration)
measurement type: Cmax (µg/mL)
Quick reminder: number only, in µg/mL, skip the unit.

Query block: Please give the documented Cmax of `C[C@@H](O)[C@H]1C(=O)N2C(C(=O)[O-])=C(SC3CN(c4nc(C#N)cs4)C3)[C@H](C)[C@H]12.[Na+]`
Result block: 157
